Where these numbers come from: patent US11103488B2

experimental protocol: Pulmonary kinetics by intratracheal route, multiple dose (7 days)
Format: in vivo, Wistar rats
condition: both sexes, Wistar, rat, plasma, inhaled or intranasal, 1 mg/kg, 1 mg/kg IT for 7 days, plasma, Day-7; read-out: Cmax, Plasma, Day-7, N-Oxide
Method: Male and female Wistar rats were weighed and randomized for groups for various time points. Roflumilast N-oxide was prepared as a suspension in a suitable vehicle for intratracheal administration. […] The plasma and lung concentrations of roflumilast N-oxide in all samples were analyzed by LC-MS/MS (using X-Calibur 2.0.7 software) as per the established method. […] Pharmacokinetic parameters in plasma were calculated from concentration data as ng/ml. […]
parameter: Cmax (ng/mL)
Numbers only, in ng/mL.

**Q:** Name the reported Cmax value associated with the compound O=C(Nc1c(Cl)c[n+]([O-])cc1Cl)c1ccc(OC(F)F)c(OCC2CC2)c1 [Roflumilast N-oxide]
**A:** 560
